systemUnderTest: JAK1 (Homo sapiens (Human))
Sequence (P23458 whole entry): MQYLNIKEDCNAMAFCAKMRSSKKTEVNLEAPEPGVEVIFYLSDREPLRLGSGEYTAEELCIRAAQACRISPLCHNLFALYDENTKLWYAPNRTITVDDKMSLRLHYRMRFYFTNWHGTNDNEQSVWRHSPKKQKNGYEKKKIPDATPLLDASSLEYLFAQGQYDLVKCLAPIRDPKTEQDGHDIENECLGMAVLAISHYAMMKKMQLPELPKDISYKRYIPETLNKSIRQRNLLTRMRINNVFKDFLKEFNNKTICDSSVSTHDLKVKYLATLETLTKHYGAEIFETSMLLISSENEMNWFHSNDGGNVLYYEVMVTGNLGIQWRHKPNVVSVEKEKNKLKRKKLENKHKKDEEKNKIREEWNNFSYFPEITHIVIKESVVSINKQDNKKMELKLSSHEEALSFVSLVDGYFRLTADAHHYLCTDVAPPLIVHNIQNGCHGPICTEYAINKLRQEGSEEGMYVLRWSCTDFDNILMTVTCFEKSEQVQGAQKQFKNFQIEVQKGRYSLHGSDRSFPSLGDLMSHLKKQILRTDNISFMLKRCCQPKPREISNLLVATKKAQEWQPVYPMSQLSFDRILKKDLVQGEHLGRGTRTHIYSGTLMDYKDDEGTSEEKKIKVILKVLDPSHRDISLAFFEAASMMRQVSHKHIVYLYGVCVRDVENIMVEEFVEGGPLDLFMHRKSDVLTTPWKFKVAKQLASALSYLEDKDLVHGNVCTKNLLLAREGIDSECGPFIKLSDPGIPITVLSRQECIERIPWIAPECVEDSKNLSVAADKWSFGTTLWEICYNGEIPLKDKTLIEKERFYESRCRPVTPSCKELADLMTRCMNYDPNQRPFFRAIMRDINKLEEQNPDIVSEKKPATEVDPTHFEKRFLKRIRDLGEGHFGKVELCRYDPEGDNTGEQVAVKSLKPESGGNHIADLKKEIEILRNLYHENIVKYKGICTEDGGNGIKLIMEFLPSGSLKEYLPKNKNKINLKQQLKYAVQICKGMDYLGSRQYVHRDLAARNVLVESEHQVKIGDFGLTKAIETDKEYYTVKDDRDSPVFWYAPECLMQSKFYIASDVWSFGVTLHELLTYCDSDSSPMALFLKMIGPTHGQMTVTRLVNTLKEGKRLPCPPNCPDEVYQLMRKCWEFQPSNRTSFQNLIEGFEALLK
assayComment: Analysis of JAK1 activity inhibition ability (ADP-Glo Kinase Assay)
Assay type: biochemical
recordedConditions: JAK1 enzyme, ADP-Glo luminescence, ATP 250 uM, IRS-itide substrate, 30° C. 40 minutes; read-out: IC50
readoutLabel: IC50

- compound: "CC1CN(C(=O)c2ccnc(F)c2)CC=C1c1cc(NC(=O)C2CC2)nc2[nH]ccc12 (stereo not shown)"
  IC50: "< 20 nM"

Fill in the blank: the reported IC50 of CCCS(=O)(=O)N1CCN(c2nc(NC(=O)C3CC3)nc3[nH]ccc23)CC1 is ____.
> 200 nM

Fill in the blank: the reported IC50 of O=C(Nc1nc(N2CC3CCC(C2)N3CC(=O)N2CCS(=O)(=O)CC2)c2cc[nH]c2n1)C1CC1 is ____.
> 200 nM

Fill in the blank: the reported IC50 of N#C[C@H]1CC1C(=O)N1CC=C(c2cc(NC(=O)C3CC3)nc3[nH]ccc23)CC1 (stereo in doubt) is ____.
< 20 nM

Fill in the blank: the reported IC50 of Cn1ccc(NC(=O)Cc2ccc(-c3cc(NC(=O)C4CC4)nc4[nH]ccc34)cc2)n1 is ____.
20 to 200 nM

Fill in the blank: the reported IC50 of O=C(Nc1ccc(F)cc1)Nc1ccc(-c2nc(NC(=O)C3CC3)nc3[nH]ccc23)cc1 is ____.
20 to 200 nM

Fill in the blank: the reported IC50 of N#CCCCS(=O)(=O)NC1CC=C(c2cc(NC(=O)C3CC3)nc3[nH]ccc23)CC1 (stereo not shown) is ____.
< 20 nM

Fill in the blank: the reported IC50 of CC1CN(C(=O)c2ccc(F)c(F)c2)CC=C1c1cc(NC(=O)C2CC2)nc2[nH]ccc12 (stereo not shown) is ____.
20 to 200 nM
